Record form. Attribute: IC50. Fill in for each entry.
System: MCF7 adenocarcinoma cell line
Protocol notes: Cell proliferation studies in MCF7 cells (ATP-Lite)
Assay type: cell-based
Condition parameters: Homo sapiens, 240 h, 10 days incubation, cell viability by ATP-Lite luminescence, read-out: PROLIFERATION_CTG_MCF7 IC50

Challenge: IC50 lookup needed for `CN1CCC(c2ccc(Nc3ncc(F)c(-c4sc5c(c4Cl)C(=O)N(C)C54CCCC4)n3)nc2)CC1` , thanks.
Response given: ≤ 20 nM

Challenge: IC50 lookup needed for `CN1CCC(c2ccc(Nc3ncc(F)c(-c4sc5c(c4Cl)C(=O)N(C)C54CC4)n3)nc2)CC1` , thanks.
Response given: 20 to 200 nM

Challenge: IC50 lookup needed for `CCN1CCN(Cc2ccc(Nc3ncc(F)c(-c4sc5c(c4C)C(=O)N(C)C54CC4)n3)nc2)CC1` , thanks.
Response given: 20 to 200 nM

Challenge: IC50 lookup needed for `CN1CC2(CCCC2)c2sc(-c3nc(Nc4ccc(N5CCOCC5)cn4)ncc3F)cc2C1=O` , thanks.
Response given: 20 to 200 nM

---

Measured target: CDK6/Cyclin D1 (Homo sapiens (Human), UniProt Q00534)
Sequence (Q00534 whole entry): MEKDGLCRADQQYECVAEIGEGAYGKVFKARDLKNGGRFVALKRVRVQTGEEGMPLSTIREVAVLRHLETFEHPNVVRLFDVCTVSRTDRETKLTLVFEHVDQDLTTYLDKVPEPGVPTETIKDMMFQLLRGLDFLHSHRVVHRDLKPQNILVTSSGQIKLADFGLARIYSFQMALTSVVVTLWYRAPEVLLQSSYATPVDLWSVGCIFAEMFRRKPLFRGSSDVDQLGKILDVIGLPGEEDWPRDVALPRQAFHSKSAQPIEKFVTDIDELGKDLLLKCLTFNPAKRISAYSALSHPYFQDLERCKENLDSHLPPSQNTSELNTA
Sequence (P24385 whole entry partner): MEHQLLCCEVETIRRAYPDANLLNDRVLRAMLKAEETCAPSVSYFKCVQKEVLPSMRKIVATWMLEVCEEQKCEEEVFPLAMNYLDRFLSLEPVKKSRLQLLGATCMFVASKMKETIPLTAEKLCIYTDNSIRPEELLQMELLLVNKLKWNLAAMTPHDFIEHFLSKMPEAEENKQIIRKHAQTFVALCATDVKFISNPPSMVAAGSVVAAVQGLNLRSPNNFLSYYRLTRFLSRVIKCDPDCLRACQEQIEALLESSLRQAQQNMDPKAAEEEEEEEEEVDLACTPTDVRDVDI
Protocol notes: CDK6/CyclinD1 enzymatic activity assay (TR-FRET)
Condition parameters: CDK6/Cyclin D1 1 nM, ATP 250 μM, read-out: CDK6_D1 IC50
Reported endpoint: IC50

Challenge: Request - read-out IC50 | tested on CDK6/Cyclin D1 (Homo sapiens (Human), UniProt Q00534) | molecule `CN1CCC(c2ccc(Nc3ncc(F)c(-c4sc5c(c4C(F)(F)F)C(=O)N(C)C54CCCC4)n3)nc2)CC1`
Response given: ≤ 20 nM

Challenge: Request - read-out IC50 | tested on CDK6/Cyclin D1 (Homo sapiens (Human), UniProt Q00534) | molecule `Cc1c(-c2nc(Nc3ccc(C4CCN(C)CC4)cn3)ncc2Cl)sc2c1C(=O)N(C)CC21CCC1`
Response given: ≤ 20 nM

Challenge: Request - read-out IC50 | tested on CDK6/Cyclin D1 (Homo sapiens (Human), UniProt Q00534) | molecule `Cc1c(-c2nc(Nc3ccc(C4CCN(C)CC4)cn3)ncc2F)sc2c1C(=O)N(C)C21CC1`
Response given: ≤ 20 nM

Challenge: Request - read-out IC50 | tested on CDK6/Cyclin D1 (Homo sapiens (Human), UniProt Q00534) | molecule `CN1CCC(c2ccc(Nc3ncc(F)c(-c4ccc5c(c4)C4(CCCC4)CN(C)C5=O)n3)nc2)CC1`
Response given: 20 to 200 nM

Challenge: Request - read-out IC50 | tested on CDK6/Cyclin D1 (Homo sapiens (Human), UniProt Q00534) | molecule `CN1CCC(c2ccc(Nc3ncc(F)c(-c4sc5c(c4C(F)(F)F)C(=O)N(C)C54CC4)n3)nc2)CC1`
Response given: ≤ 20 nM

---

Measured target: CDK6/Cyclin D1 (Homo sapiens (Human))
Protocol notes: CDK6/CyclinD1 enzymatic activity assay (TR-FRET)
Condition parameters: CDK6/Cyclin D1 1 nM, ATP 250 μM, read-out: CDK6_D1 IC50
Reported endpoint: IC50

Challenge: IC50 lookup needed for `Cc1c(-c2nc(Nc3ccc(N4CC5(C4)CN(C(C)C)C5)cn3)ncc2F)sc2c1C(=O)N(C)CC21CC1` , thanks.
Response given: ≤ 20 nM

Challenge: IC50 lookup needed for `Cc1cnc(Nc2ccc(N3CCC4(CC3)CN(C)C4)cn2)nc1-c1cc2c(s1)C1(CC1)CN(C)C2=O` , thanks.
Response given: ≤ 20 nM

Challenge: IC50 lookup needed for `CCN1CC2(C1)CN(c1ccc(Nc3ncc(F)c(-c4cc5c(s4)C4(CCCC4)N(CC)C5=O)n3)nc1)C2` , thanks.
Response given: ≤ 20 nM

Challenge: IC50 lookup needed for `CN1CCC(c2ccc(Nc3ncc(F)c(-c4cc5c(s4)C4(CCC4)CN(C)C5=O)n3)nc2)CC1` , thanks.
Response given: 20 to 200 nM

Challenge: IC50 lookup needed for `CCN1C(=O)c2cc(-c3nc(Nc4ccc(C5CCN(C)CC5)cn4)ncc3F)sc2C12CCCC2` , thanks.
Response given: 20 to 200 nM

Challenge: IC50 lookup needed for `CCN1CC2(C1)CN(c1ccc(Nc3ncc(F)c(-c4sc5c(c4C)C(=O)N(C)CC54CCC4)n3)nc1)C2` , thanks.
Response given: ≤ 20 nM

Challenge: IC50 lookup needed for `CN1CCC(c2ccc(Nc3ncc(F)c(-c4cc5c(s4)C4(CCCCC4)CN(C)C5=O)n3)nc2)CC1` , thanks.
Response given: 20 to 200 nM

Challenge: IC50 lookup needed for `CCN1CCN(c2ccc(Nc3ncc(F)c(-c4cc5c(s4)C4(CCCC4)CN(C)C5=O)n3)nc2)C(=O)C1` , thanks.
Response given: 20 to 200 nM

Challenge: IC50 lookup needed for `Cc1c(-c2nc(Nc3ccc(N4CC5(CCN(C)C5)C4)cn3)ncc2F)sc2c1C(=O)N(C)CC21CCC1` , thanks.
Response given: ≤ 20 nM

Challenge: IC50 lookup needed for `CCN1CC2(C1)CN(c1ccc(Nc3ncc(Cl)c(-c4cc5c(s4)C4(CC4)CN(C)C5=O)n3)nc1)C2` , thanks.
Response given: ≤ 20 nM

Challenge: IC50 lookup needed for `CN1CC2(CCC2)c2sc(-c3nc(Nc4ccc(N5CC6CC(C5)N6C)cn4)ncc3F)cc2C1=O` , thanks.
Response given: 20 to 200 nM

Challenge: IC50 lookup needed for `CN1CCC(c2ccc(Nc3ncc(F)c(-c4cc5c(s4)C4(CCCC4)CN(C)C5=O)n3)nc2)CC1` , thanks.
Response given: ≤ 20 nM

Challenge: IC50 lookup needed for `CCN1CC2(C1)CN(c1ccc(Nc3ncc(F)c(-c4cc5c(s4)C4(CCCC4)CN(C)C5=O)n3)nc1)C2` , thanks.
Response given: ≤ 20 nM

Challenge: IC50 lookup needed for `CN1CCC(c2ccc(Nc3ncc(F)c(-c4cc5c(s4)C4(CCCC4)N(C)C5=O)n3)nc2)CC1` , thanks.
Response given: ≤ 20 nM

Challenge: IC50 lookup needed for `CCN1CC2(CC(c3ccc(Nc4ncc(F)c(-c5sc6c(c5C)C(=O)N(C)C65CC5)n4)nc3)C2)C1` , thanks.
Response given: ≤ 20 nM

Challenge: IC50 lookup needed for `Cc1cnc(Nc2ccc(C3CCN(C)CC3)cn2)nc1-c1cc2c(s1)C1(CCC1)CN(C)C2=O` , thanks.
Response given: ≤ 20 nM

Challenge: IC50 lookup needed for `Cc1c(-c2nc(Nc3ccc(N4C[C@H]5CN(C)C[C@H]5C4)cn3)ncc2F)sc2c1C(=O)N(C)CC21CCC1` , thanks.
Response given: ≤ 20 nM

Challenge: IC50 lookup needed for `CN1CC2(CCCC2)c2sc(-c3nc(Nc4ccc(N5CCOCC5)cn4)ncc3F)cc2C1=O` , thanks.
Response given: 20 to 200 nM

Challenge: IC50 lookup needed for Cc1c(-c2nc(Nc3ccc(N4CCC5(CCN(C)C5)C4)cn3)ncc2F)sc2c1C(=O)N(C)CC21CCC1 (stereo not shown) , thanks.
Response given: ≤ 20 nM

Challenge: IC50 lookup needed for `CN1CCC(c2ccc(Nc3ncc(F)c(-c4cc5c(s4)C4(CC4)CN(C)C5=O)n3)nc2)CC1` , thanks.
Response given: 20 to 200 nM

Challenge: IC50 lookup needed for `CCN1C(=O)c2c(sc(-c3nc(Nc4ccc(C5CCN(C)CC5)cn4)ncc3F)c2C)C12CC2` , thanks.
Response given: ≤ 20 nM

Challenge: IC50 lookup needed for `CN1CCC(c2ccc(Nc3ncc(F)c(-c4sc5c(c4Cl)C(=O)N(C)C54CC4)n3)nc2)CC1` , thanks.
Response given: ≤ 20 nM

---

Tested on: MCF7 adenocarcinoma cell line
Protocol notes: Cell proliferation studies in MCF7 cells (ATP-Lite)
Assay type: cell-based
Condition parameters: Homo sapiens, 240 h, 10 days incubation, cell viability by ATP-Lite luminescence, read-out: PROLIFERATION_CTG_MCF7 IC50
pIC50: −log10 of the molar value.
Reported endpoint: pIC50

Challenge: pIC50 lookup needed for CCN1C(=O)c2c(sc(-c3nc(Nc4ccc(C5CCN(C)CC5)cn4)ncc3Cl)c2C)C12CC2 [Example 11] , thanks.
Response given: 6.70 to 7.70

Challenge: pIC50 lookup needed for CN1CC2(CCC2)c2sc(-c3nc(Nc4ccc(N5CC6CC(C5)N6C)cn4)ncc3F)cc2C1=O [Example 46] , thanks.
Response given: 6.70 to 7.70

Challenge: pIC50 lookup needed for CCN1CCN(c2ccc(Nc3ncc(F)c(-c4cc5c(s4)C4(CCCC4)CN(C)C5=O)n3)nc2)CC1 [Example 3] , thanks.
Response given: 6.70 to 7.70

Challenge: pIC50 lookup needed for CN1CCN(c2ccc(Nc3ncc(F)c(-c4cc5c(s4)C4(CCC4)CN(C)C5=O)n3)nc2)CC1 [Example 50] , thanks.
Response given: 6.70 to 7.70

Challenge: pIC50 lookup needed for Cc1c(-c2nc(Nc3ccc(N4CC5(C4)CN(C(C)C)C5)cn3)ncc2F)sc2c1C(=O)N(C)CC21CC1 [Example 34] , thanks.
Response given: ≥ 7.70

Challenge: pIC50 lookup needed for CCN1CCN(Cc2ccc(Nc3ncc(F)c(-c4sc5c(c4C)C(=O)N(C)CC54CC4)n3)nc2)CC1 [Example 38] , thanks.
Response given: 5.70 to 6.70

Challenge: pIC50 lookup needed for CCN1CC2(C1)CN(c1ccc(Nc3ncc(C)c(-c4sc5c(c4C)C(=O)N(C)CC54CC4)n3)nc1)C2 [Example 42] , thanks.
Response given: 6.70 to 7.70

Challenge: pIC50 lookup needed for CCN1CCN(c2ccc(Nc3ncc(F)c(-c4cc5c(s4)C4(CCCC4)CN(C)C5=O)n3)nc2)C(=O)C1 [Example 86] , thanks.
Response given: 6.70 to 7.70

Recorded values, source patent US20250163074A1.
